tested on: K-562 leukemia; assay: NCI-60 one-dose screen, 48 h; conditions: 10 µM unless noted
The panel holds about 83,000 compounds, 20% with a hit somewhere; the sample as a whole holds those more often. Active and inactive are the calls of the source. Rule for the calls: active = growth percent below 10; inactive = the rest.
Please reply with one of these outcomes: active, inactive

Consider the worked cases shown below.
Compound: Clc1cc(Cl)cc(Nc2ccc3c(OCCCN4CCOCC4)cccc3n2)c1
Measured On: K-562 leukemia
Group: active

Compound: c1ccc2[nH]c(-c3ccc(Nc4nc(N5CCCCC5)nc(N5CCOCC5)n4)cc3)nc2c1
Measured On: K-562 leukemia
Group: active

Compound: CCc1ccc(-c2ccc(Nc3ccccc3)nn2)cc1S(N)(=O)=O
Measured On: K-562 leukemia
Group: inactive

Compound: Cc1oc(-c2ccccc2Cl)cc1C(=O)Nc1ccc(S(N)(=O)=O)cc1
Measured On: K-562 leukemia
Group: inactive

Compound: C#CCn1c(C)cc(C)c(C#N)c1=O
Measured On: K-562 leukemia
Group: inactive

Compound: CCOC(=O)c1ccc2c(c1)[n+](=O)c(C(=O)C1CCCS1)c(C(F)(F)F)n2[O-] (centres undefined)
Measured On: K-562 leukemia
Group: active

Query: What was the test verdict on O=S(=O)(NCCNc1cc(-c2cn(-c3ccccc3)nc2-c2cccc(O)c2)ccn1)c1ccc(C(F)(F)F)cc1 ?
Response: active

Query: What was the test verdict on NC1(N)C=CC2=C(C=C1)C1(N)C3=C(C=CC(N)(N)C=C3)N2C2(N)C3=C(C=CC(N)(N)C=C3)N1C1=C2C=CC(N)(N)C=C1 ?
Response: inactive

Query: What was the test verdict on COC(=O)[C@]12CC[C@@H](C)[C@H](C)[C@@H]1C1=CC[C@@H]3[C@@]4(C)CC(=O)[C@H](OC(=O)c5ccco5)[C@@]5(C)COC(=C45)C[C@@]3(C)[C@]1(C)CC2 ?
Response: inactive
